B1: Azoarcus group I ribozyme (parent)
chain: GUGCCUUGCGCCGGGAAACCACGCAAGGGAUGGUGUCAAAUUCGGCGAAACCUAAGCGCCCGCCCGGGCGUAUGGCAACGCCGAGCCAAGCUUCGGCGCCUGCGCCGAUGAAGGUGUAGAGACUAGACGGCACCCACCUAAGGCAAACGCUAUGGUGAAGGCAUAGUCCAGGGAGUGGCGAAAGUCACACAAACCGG

Variants of: B1
testSummary: reverse-splicing fitness (ratio to wild type); higher = more active; in vitro selection; Mg2+ level not given
# binning rule on reverse-splicing fitness: class 0 (below 0.007), class 1 (0.007 to below 0.01), class 2 (0.01 or more)

>>> df
                              sequencechange  classlabel
 0  C82A A111C A120C A145G C150G C169U U176A     class 2
 1              C82G A111G A120U C150U C169G     class 0
 2              C82G A111G A120C C150G U176G     class 0
 3              C82U A111C A145U C169G U176A     class 2
 4              C82G A120G A145C C169U U176C     class 2
 5  C82U A111C A120U A145G C150A C169G U176G     class 0
 6        C82G A111U A120G A145C C169G U176G     class 0
 7              C82G A111G A120G C150U C169U     class 2
 8                    C82U A120G C150U U176G     class 0
 9  C82A A111U A120U A145U C150A C169G U176G     class 0
10  C82U A111G A120C A145U C150U C169U U176G     class 0
11              C82U A111C A145U C169U U176A     class 2
12        C82G A111C A145G C150U C169A U176A     class 2
13                   A111C A120C A145C C150U     class 2
14              C82U A111U A120G A145C C169G     class 1
15             A111C A145U C150U C169G U176G     class 1
16                               A120C U176G     class 2
17                         A120U A145C C169G     class 2
18  C82U A111C A120U A145U C150U C169G U176C     class 0
19  C82A A111U A120U A145G C150U C169A U176G     class 0
20              C82A A111G A120U C150G U176G     class 0
21             A111C A120C A145U C169U U176C     class 2
22        C82U A111C A145C C150G C169G U176A     class 1
23       A111G A120U A145U C150A C169A U176A     class 0
24        C82A A111G A120C C150A C169A U176G     class 1
25        C82A A111G A120G A145C C150U U176G     class 0
26       A111U A120G A145U C150U C169G U176C     class 2
27        C82A A111G A120G C150A C169U U176A     class 2
28        C82U A111U A120G A145C C169G U176C     class 2
29        C82U A111C A120G A145G C169A U176C     class 2
30  C82U A111C A120U A145U C150G C169U U176C     class 0
31             A111U A120C A145G C169A U176A     class 2
32        C82U A111G A120G A145G C150U C169G     class 2
33              C82U A111G A145U C150G C169A     class 1
34        C82U A111G A120U A145C C169A U176G     class 0
35                   A111C A120C A145G C169U     class 2
36       A111C A120C A145U C150A C169A U176C     class 1
37              C82A A120U A145G C150U U176C     class 2
38                    C82G A111C C150U C169G     class 1
39                   A111C A145G C169A U176G     class 0
40        C82G A111G A120C A145C C150U C169G     class 1
41  C82U A111G A120C A145G C150G C169U U176C     class 2
42                    C82G A120C A145C C150A     class 2
43              C82U A145C C150U C169A U176G     class 0
44                          C82G C169U U176A     class 2
45                   A111U C150A C169A U176G     class 0
46        C82A A111U A120G C150G C169U U176C     class 2
47        C82U A111G A120G C150U C169A U176C     class 2
48             A111C A120C A145U C150A C169G     class 0
49  C82G A111U A120G A145G C150G C169U U176G     class 1
50              C82A A111C C150U C169A U176A     class 2
51  C82A A111C A120G A145C C150A C169U U176A     class 2
52        C82U A120G A145C C150A C169G U176C     class 2
53                   A145U C150G C169U U176A     class 2
54                   A111U A145G C169A U176C     class 2
55              C82U A111G A120U C150A C169G     class 0
56  C82A A111C A120U A145C C150G C169A U176C     class 0
57             A111G A120U A145G C150U C169A     class 1
58                   A111C A120G A145U C150A     class 2
59                         A111C A120U U176G     class 2
60                          C82A A145G C169U     class 2
61              C82G A120C A145G C169G U176A     class 2
62        C82U A111U A120U C150A C169A U176C     class 0
63  C82U A111U A120G A145U C150G C169A U176C     class 1
64        C82A A111C A120G A145U C150G U176C     class 2
65              C82A A111U A120C C169A U176A     class 2
66              C82G A111C A120C A145U C169A     class 1
